Biological target: angiotension I-converting enzyme (ACE) (Oryctolagus cuniculus, UniProt P12822)
Construct: The ACE solution was prepared by homogenizing 5 g of acetone powders of rabbit lungs; tissue Sigma Chemical Co; host or cells: rabbit lung (acetone powder, borate buffer extract, 40,000 G supernatant)
Sequence (P12822 34-1310): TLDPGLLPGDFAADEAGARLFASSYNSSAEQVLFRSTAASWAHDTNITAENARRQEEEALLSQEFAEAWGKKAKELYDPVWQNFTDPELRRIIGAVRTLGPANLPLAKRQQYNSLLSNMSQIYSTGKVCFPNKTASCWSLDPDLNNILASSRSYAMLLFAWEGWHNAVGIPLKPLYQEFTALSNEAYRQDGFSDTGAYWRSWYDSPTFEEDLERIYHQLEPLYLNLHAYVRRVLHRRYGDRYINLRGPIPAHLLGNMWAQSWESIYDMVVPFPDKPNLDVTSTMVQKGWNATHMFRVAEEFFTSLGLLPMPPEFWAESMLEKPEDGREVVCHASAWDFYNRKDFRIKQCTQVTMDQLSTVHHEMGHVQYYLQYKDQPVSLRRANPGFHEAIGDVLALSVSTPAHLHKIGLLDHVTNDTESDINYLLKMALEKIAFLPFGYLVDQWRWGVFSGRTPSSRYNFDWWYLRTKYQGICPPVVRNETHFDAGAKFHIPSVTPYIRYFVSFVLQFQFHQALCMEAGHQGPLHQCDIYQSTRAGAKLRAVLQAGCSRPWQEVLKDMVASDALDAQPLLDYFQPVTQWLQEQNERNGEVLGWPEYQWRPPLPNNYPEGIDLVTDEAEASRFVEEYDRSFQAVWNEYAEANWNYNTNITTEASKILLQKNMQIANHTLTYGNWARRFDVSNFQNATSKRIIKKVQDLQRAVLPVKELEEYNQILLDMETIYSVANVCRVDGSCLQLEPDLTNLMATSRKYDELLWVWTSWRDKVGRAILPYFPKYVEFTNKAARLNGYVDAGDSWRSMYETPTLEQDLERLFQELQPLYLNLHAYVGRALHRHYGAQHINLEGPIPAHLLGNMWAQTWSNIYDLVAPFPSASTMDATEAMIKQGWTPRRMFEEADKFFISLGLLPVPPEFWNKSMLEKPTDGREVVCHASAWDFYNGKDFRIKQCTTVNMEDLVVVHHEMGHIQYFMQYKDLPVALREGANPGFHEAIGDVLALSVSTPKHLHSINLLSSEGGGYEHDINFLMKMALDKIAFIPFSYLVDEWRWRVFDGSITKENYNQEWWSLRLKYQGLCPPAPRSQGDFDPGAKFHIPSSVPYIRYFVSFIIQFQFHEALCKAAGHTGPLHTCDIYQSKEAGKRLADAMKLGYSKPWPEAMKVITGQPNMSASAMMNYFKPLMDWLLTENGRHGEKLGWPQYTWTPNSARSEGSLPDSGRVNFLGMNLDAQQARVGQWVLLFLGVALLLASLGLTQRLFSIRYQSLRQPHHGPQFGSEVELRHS
Assay: Measurement of inhibitory activity against the angiotension I-converting enzyme (ACE), hippuryl-l-histidyl-l-leucine as substrate
Format: biochemical, rabbit
Details: pH 8.3, 37° C., 30 minutes, partially purified ACE from rabbit lungs; read-out: Inhibitory concentration IC50
Counter-ions that a name gives are not always drawn.
Assign pIC50 to each entry below.
The meaning of pIC50 here: minus log10 of the concentration in molar units.

Provide one value: measured pIC50 of C/C=C/C(=O)N1CCN(c2nc(NC(=O)[C@@H]3CCCN3C(=O)[C@H](C)CSC(C)=O)c3cc(OC)c(OC)cc3n2)CC1 [Example 2, hydrochloride hydrate]
6.44

Provide one value: measured pIC50 of COc1cc2nc(N3CCN(C(=O)c4ccc(OCc5ccccc5)cc4)CC3)nc(NC(=O)[C@@H]3CCCN3C(=O)[C@H](C)CSC(C)=O)c2cc1OC [Example 4, hydrochloride sesquihydrate]
6.35

Provide one value: measured pIC50 of COc1cc2nc(N3CCN(C(=O)c4ccco4)CC3)nc(NC(=O)[C@@H]3CCCN3C(=O)[C@H](C)CSC(C)=O)c2cc1OC
6.51

Provide one value: measured pIC50 of CCOC(=O)N1CCN(c2nc(NC(=O)C3CSCN3C(=O)C(C)CSC(C)=O)c3cc(OC)c(OC)cc3n2)CC1 (racemic) [Example 6, hydrochloride hemihydrate]
5.85

Provide one value: measured pIC50 of COc1cc2nc(N3CCN(C(=O)C(C)Oc4ccccc4)CC3)nc(NC(=O)[C@@H]3CCCN3C(=O)[C@H](C)CSC(C)=O)c2cc1OC (stereo partly shown) [Example 3, hydrochloride hydrate]
6.47

Provide one value: measured pIC50 of CCOC(=O)N1CCN(c2nc(NC(=O)[C@@H]3CCCN3C(=O)[C@H](C)CSC(C)=O)c3cc(OC)c(OC)cc3n2)CC1 [Example 1, hydrochloride hemihydrate]
6.38

Provide one value: measured pIC50 of COc1ccc(C(=O)N2CCN(c3nc(NC(=O)[C@@H]4CCCN4C(=O)[C@H](C)CSC(C)=O)c4cc(OC)c(OC)cc4n3)CC2)cc1OC [Example 5, hydrochloride sesquihydrate]
6.58

====

target: angiotension I-converting enzyme (ACE) (Oryctolagus cuniculus, UniProt P12822); construct: The ACE solution was prepared by homogenizing 5 g of acetone powders of rabbit lungs; tissue Sigma Chemical Co; host or cells: rabbit lung (acetone powder, borate buffer extract, 40,000 G supernatant); test: Measurement of inhibitory activity against the angiotension I-converting enzyme (ACE), hippuryl-l-histidyl-l-leucine as substrate; assay type: biochemical, rabbit
Experimental readout: IC50

Provide one value: measured IC50 of COc1cc2nc(N3CCN(C(=O)c4ccco4)CC3)nc(N)c2cc1OC [prazosin, reference compound]
≥ 10 µM
